- Test system: OVCAR-5 complex spheroid (HUVEC/MSC), viability % T/C
- protocol-details: Anticancer human tumor OVCAR-5 cell line growth inhibition [Asc];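 also: spheroids exposed to agents for 7 days before readout; 100% = DMSO vehicle-treated wells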
- condition-notes: second compound 3.16 µM; first compound 0.00316 µM; active compounds read low
assay-metric: viability, T/C

• Cn1ncnc1[C@H]1c2n[nH]c(=O)c3cc(F)cc(c23)N[C@@H]1c1ccc(F)cc1 + Cc1c(S(C)(=O)=O)c(-c2cc(F)cc(N3CCN(c4ccc(NS(=O)(=O)c5ccc(NC(CCN6CCC(C(=O)OCCCP(=O)(O)O)CC6)CSc6ccccc6)c(S(=O)(=O)C(F)(F)F)c5)cc4)CC3)c2)c(-c2ccc(Cl)cc2)n1C(C)C = 91.2%

Identify measured viability, T/C corresponding to O=C(c1ccc(F)c(F)c1Nc1ccc(I)cc1F)N1CC(O)([C@@H]2CCCCN2)C1 + Cc1c(S(C)(=O)=O)c(-c2cc(F)cc(N3CCN(c4ccc(NS(=O)(=O)c5ccc(NC(CCN6CCC(C(=O)OCCCP(=O)(O)O)CC6)CSc6ccccc6)c(S(=O)(=O)C(F)(F)F)c5)cc4)CC3)c2)c(-c2ccc(Cl)cc2)n1C(C)C
81.2%

Answer with reported viability, T/C of CNC(C)C(=O)NC1CN(S(=O)(=O)c2cccc(S(=O)(=O)N3CCC4CCC(C(=O)NC(c5ccccc5)c5ccccc5)N4C(=O)C(NC(=O)C(C)NC)C3)c2)CCC2CCC(C(=O)NC(c3ccccc3)c3ccccc3)N2C1=O (stereo not drawn) + Cc1c(S(C)(=O)=O)c(-c2cc(F)cc(N3CCN(c4ccc(NS(=O)(=O)c5ccc(NC(CCN6CCC(C(=O)OCCCP(=O)(O)O)CC6)CSc6ccccc6)c(S(=O)(=O)C(F)(F)F)c5)cc4)CC3)c2)c(-c2ccc(Cl)cc2)n1C(C)C
89.1%
